Biological target: T1, CD32B (FcγRII-B) (UniProt P31994 43-217, limits assumed)
T1 sequence (looked up): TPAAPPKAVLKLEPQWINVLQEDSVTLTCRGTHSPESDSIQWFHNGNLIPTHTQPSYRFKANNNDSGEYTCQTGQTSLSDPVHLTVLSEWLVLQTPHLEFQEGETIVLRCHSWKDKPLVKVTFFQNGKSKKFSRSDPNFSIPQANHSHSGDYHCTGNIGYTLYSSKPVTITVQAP
Experiment: method not stated at Table 3
# reported binding relative to wild-type Fc; entries follow

| BINDER | binding relative to wild-type Fc [fold] |
| --- | --- |
| Fc variant F243L D270E K392T P396L (other, UniProt P01857-1 104-330, looked up, domain: Fc) DKTHTCPPCPAPELLGGPSVFLLPPKPKDTLMISRTPEVTCVVVDVSHEEPEVKFNWYVDGVEVHNAKTKPREEQYNSTYRVVSVLTVLHQDWLNGKEYKCKVSNKALPAPIEKTISKAKGQPREPQVYTLPPSRDELTKNQVSLTCLVKGFYPSDIAVEWESNGQPENNYTTTPLVLDSDGSFFLYSKLTVDKSRWQQGNVFSCSVMHEALHNHYTQKSLSLSPGK | 0.44 |
| Fc variant D270E P396L G316D R416G (other, UniProt P01857-1 104-330, looked up, domain: Fc; also called D270E G316D P396L R416G) DKTHTCPPCPAPELLGGPSVFLFPPKPKDTLMISRTPEVTCVVVDVSHEEPEVKFNWYVDGVEVHNAKTKPREEQYNSTYRVVSVLTVLHQDWLNDKEYKCKVSNKALPAPIEKTISKAKGQPREPQVYTLPPSRDELTKNQVSLTCLVKGFYPSDIAVEWESNGQPENNYKTTPLVLDSDGSFFLYSKLTVDKSGWQQGNVFSCSVMHEALHNHYTQKSLSLSPGK | 1.07 |
| Fc variant F243L P247L N421K (other, UniProt P01857-1 104-330, looked up, domain: Fc) DKTHTCPPCPAPELLGGPSVFLLPPKLKDTLMISRTPEVTCVVVDVSHEDPEVKFNWYVDGVEVHNAKTKPREEQYNSTYRVVSVLTVLHQDWLNGKEYKCKVSNKALPAPIEKTISKAKGQPREPQVYTLPPSRDELTKNQVSLTCLVKGFYPSDIAVEWESNGQPENNYKTTPPVLDSDGSFFLYSKLTVDKSRWQQGKVFSCSVMHEALHNHYTQKSLSLSPGK | 0.17 |

Values from patent US20240131162A1
